# Residual Binding of Y1 (% of baseline) annotations
# Tested on: Y1 binding to purified glycocalicin
# Assay Protocol: ELISA: effect of synthetic GPIbα peptides on Y1 binding to purified glycocalicin
# Design: species or system human
# Condition Description: peptide 0.5 μM; 0.25 μg/well Y1
Non-standard residues stand in square brackets, D forms with d. No end group written: not given here. sY = N[C@@H](Cc1ccc(OS(=O)(=O)O)cc1)C(=O)O

GDEGDTDLY*DY*Y*PEEDTE (GDEGDTDL[sY]D[sY][sY]PEEDTE) [P-1-S, residues 268-285 of GPIbα, Y* sulfated tyrosine]	89 % of baseline
GDEGDTDLYDYYPEEDTE [P-1, residues 268-285 of GPIbα, non-sulfated]	88 % of baseline
TDLY*DY*Y*PEEDTE (TDL[sY]D[sY][sY]PEEDTE) [P-2-S, residues 273-285 of GPIbα, Y* sulfated tyrosine]	78 % of baseline
GDEGDTDLY*DY*Y*P (GDEGDTDL[sY]D[sY][sY]P) [P-3-S, residues 268-280 of GPIbα, Y* sulfated tyrosine]	80 % of baseline

Record REEGRQHFFLLEGRSSYS [negative control peptide, reference compound] , field Residual Binding of Y1 (% of baseline): 121 % of baseline
